experimental target: human GIP receptor (bioGIPR) (Homo sapiens)
Construct: Biotinylate extracellular of the human GIP receptor (bioGIPR, Proteros biostructures GmbH, lot #02/2b); purchased Proteros biostructures GmbH lot #02/2b
Sequence (P48546 22-138 limits assumed): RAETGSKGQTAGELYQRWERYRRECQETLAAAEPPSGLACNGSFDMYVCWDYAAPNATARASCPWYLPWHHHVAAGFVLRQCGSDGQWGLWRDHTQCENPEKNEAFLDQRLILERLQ
protocol: Surface plasmon resonance (SPR) based binding assay
run parameters: SPR dissociation half-life, Single Cycle Kinetic mode, 25° C.
*1 amine or outer side, *2 acyl side, *3 side chain or, on linkers, in order; H or OH if unused. Where a SMILES comes first, the peptide text is derived from it. Bridges are numbered along the chain shown (N, C = ends). [ ]: non-standard residue; d: D form. The star is where a group is joined. X13 = O=C(CN1CCN2CCN3CCN(CC1)CC(=O)[O][Lu]([O]C(=O)C2)[O]C(=O)C3)NCCCOCCOCCOCCCN*; Trp(5-Cl) = N[C@@H](Cc1c[nH]c2ccc(Cl)cc12)C(=O)O; Pyridine(2,6-diCH2) = c1cc(C[*:1])nc(C[*:2])c1; X7 = c1cc(CSCCN[*:2])cc(C[*:1])c1; Hyp = O=C(O)[C@@H]1C[C@@H](O)CN1; Suc = O=C(CCC(=O)[*:2])[*:1]; Thp = NC1(C(=O)O)CCOCC1; Aib = CC(C)(N)C(=O)O
reported metric: t1/2 Category

CC[C@H](C)[C@@H]1NC(=O)[C@H](CC(C)C)NC(=O)C2(CCOCC2)NC(=O)[C@@H](NC(=O)[C@@H](CC(C)C)NC(=O)[C@H](CCCCN)NC(=O)[C@@H]2C[C@@H](O)CN2C(=O)[C@H](Cc2c[nH]c3ccc(Cl)cc23)NC(=O)[C@H](Cc2c[nH]c3ccccc23)NC(=O)[C@H](CC(=O)O)NC(C)=O)CSCc2cccc(n2)CSC[C@@H](C(N)=O)NC1=O [GIP-375] (Ac-DW[Trp(5-Cl)][Hyp]K[dL]C[Thp]LIC-NH2; linker 7-11 via Pyridine(2,6-diCH2))    A (t1/2 values>15 min)
CC[C@H](C)[C@@H]1NC(=O)[C@H](CC(C)C)NC(=O)C(C)(C)NC(=O)[C@@H](NC(=O)[C@@H](CC(C)C)NC(=O)[C@H](CCC(=O)O)NC(=O)[C@@H]2CCCN2C(=O)[C@H](Cc2c[nH]c3ccc(Cl)cc23)NC(=O)[C@H](Cc2c[nH]c3ccccc23)NC(=O)[C@H](CC(=O)O)NC(=O)CCC(=O)NCCCOCCOCCOCCCNC(=O)CN2CCN3CCN4CCN(CC2)CC(=O)[O][Lu]([O]C(=O)C3)[O]C(=O)C4)CSCc2cccc(c2)CSCCNC1=O [GIP-167] ({X13-Suc}-DW[Trp(5-Cl)]PE[dL]C[Aib]LI; linker 7-C via X7)    A (t1/2 values>15 min)
